Tested on: DLD1
Experiment: TCF/Wnt firefly luciferase reporter signal relative to plate median (fraction of plate median); higher = higher Wnt reporter signal
Settings: 5 µM; treatment time 24 h; reporter: 7TFP
Would you mind labelling by TCF/Wnt firefly luciferase reporter signal? At or over 1 is met, under is not met.

The following compounds have reported results that may help.
COMPOUND	ASSAYED SYSTEM	LABEL
COC(=O)C[C@H]1C(C)(C)[C@@H](OC(C)=O)[C@@H]2CC3C4CC(=O)O[C@@H](c5ccoc5)[C@]4(C)CCC3[C@@]1(C)C2=O (some centres undefined)	DLD1	not met
CCOc1ccc2c(c1)C(C)=CC(C)(C)N2	DLD1	not met
CN[C@@H]1[C@H](O)[C@H](NC)[C@H]2O[C@@]3(O)C(=O)C[C@@H](C)O[C@H]3O[C@@H]2[C@H]1O	DLD1	met

Task: Hello, I need to know if "O=C1C=CC(=C(c2ccc(O)cc2)c2ccc(O)cc2)C=C1" has measured TCF/Wnt firefly luciferase reporter signal not below 1. Thanks!
Output: not met

Task: Try the compound "CN(C)[C@@H]1C(O)=C(C(N)=O)C(=O)[C@@]2(O)C(O)=C3C(=O)c4c(O)ccc(Cl)c4[C@@](C)(O)[C@H]3C[C@@H]12"
Output: met

Task: Try the compound "NC(=O)c1cccc(N)c1"
Output: not met

Task: Try the compound "CC(C)(S)[C@@H](N)C(=O)O"
Output: met

Task: Try the compound "CCCCCCOc1ccccc1C(N)=O"
Output: met

====

Assignment: determine reported cell viability for the given compounds.
System: DLD1
Assay: cell viability (CellTiter-Glo) relative to plate median (fraction of plate median); higher = more viable cells
Conditions: 10 µM; treatment time 24 h; reporter: 7TFP
Answers are plain numbers.

Some compounds with known cell viability results, for comparison:
COMPOUND	cell viability
OCCn1cc(-c2cnc3nnn(Cc4ccc5ncccc5c4)c3n2)cn1	1.16
COc1cc2ncnc(Nc3ccc(F)c(Cl)c3)c2cc1OCCCN1CCOCC1	0.913
NC1(Cc2ccc(Cl)cc2)CCN(c2ncnc3[nH]ccc23)CC1	1.18
COc1cc2ncnc(Nc3ccc(F)c(Cl)c3)c2cc1NC(=O)/C=C/CN1CCCCC1	0.875
CCN(CC)CCNC(=O)c1c(C)[nH]c(/C=C2\C(=O)Nc3ccc(F)cc32)c1C [Sunitinib Malate (Sutent)]	0.867

For each of the compounds below, state cell viability.
1. N#CC[C@H](C1CCCC1)n1cc(-c2ncnc3[nH]ccc23)cn1
2. C[C@@H](Oc1cc(-n2cnc3ccc(CN4CCN(C)CC4)cc32)sc1C(N)=O)c1ccccc1C(F)(F)F
3. O=C(c1ccc(/C=C/c2n[nH]c3ccccc23)cc1)N1CCNCC1
4. FC(F)(F)c1ccc(/C=C/c2nc(COc3ccc(CCCCn4ccnn4)cc3)co2)cc1
5. COCCOc1ccc2c(c1)ncn2-c1ccc2cccc(N3CCC(N)CC3)c2n1
6. CNC(=O)c1cc(Oc2ccc(NC(=O)Nc3ccc(Cl)c(C(F)(F)F)c3)c(F)c2)ccn1

Output:
1.11
0.905
1.16
0.979
0.954
1.04

For each of the compounds below, state cell viability.
1. CO[C@H]1C[C@@H]2CC[C@@H](C)[C@@](O)(O2)C(=O)C(=O)N2CCCC[C@H]2C(=O)O[C@H]([C@H](C)C[C@@H]2CC[C@@H](O)[C@H](OC)C2)CC(=O)[C@H](C)/C=C(\C)[C@@H](O)[C@@H](OC)C(=O)[C@H](C)C[C@H](C)/C=C/C=C/C=C/1C [Rapamycin (Sirolimus)]
2. Cc1nc(Nc2ncc(C(=O)Nc3c(C)cccc3Cl)s2)cc(N2CCN(CCO)CC2)n1
3. O=C(O)[C@]1(Cc2cccc(Nc3nccs3)n2)CC[C@@H](Oc2cccc(Cl)c2F)CC1
4. CO[C@H]1C[C@@H]2CC[C@@H](C)[C@@](O)(O2)C(=O)C(=O)N2CCCC[C@H]2C(=O)O[C@H]([C@H](C)C[C@@H]2CC[C@@H](OCCO)[C@H](OC)C2)CC(=O)[C@H](C)/C=C(\C)[C@@H](O)[C@@H](OC)C(=O)[C@H](C)C[C@H](C)/C=C/C=C/C=C/1C [Everolimus (RAD001)]

Output:
1.07
0.774
1.08
1.04

====

Assignment: determine reported cell viability for the given molecules.
Test system: DLD1
Test: cell viability (CellTiter-Glo) relative to plate median (fraction of plate median); higher = more viable cells
Conditions: 5 µM; treatment time 24 h; reporter: 7TFP

MOLECULE	cell viability
NS(=O)(=O)c1cc2c(cc1Cl)N=C(CSCc1ccccc1)NS2(=O)=O	0.974
CC(N)C12CC3CC(CC(C3)C1)C2 (stereo unspecified)	1.02
CC1CCC(NC(=O)N(CCCl)N=O)CC1 (stereo unspecified)	1.01
Cc1c(N(C)C)c(=O)n(-c2ccccc2)n1C	0.898
COc1ccc2c(c1OC)OC[C@@H](c1ccc(OC)c(OC)c1OC)C2	1.01

For each of the molecules below, state cell viability.
1. CC(=O)Oc1cc(C)c2c(c1C=O)Oc1c(c(C)c(OC(C)=O)c3c1C(OC(C)=O)OC3=O)OC2=O (stereo unspecified)
2. O=C(CCCN1CCN(c2ccccn2)CC1)c1ccc(F)cc1
3. CN[C@@H]1[C@H](O[C@H]2[C@H](O[C@H]3[C@H](O)[C@@H](O)[C@H](NC(=N)N)[C@@H](O)[C@@H]3NC(=N)N)O[C@@H](C)[C@]2(O)CO)O[C@@H](CO)[C@H](O)[C@H]1O
4. C/C=C/CCC(=O)c1cc(C)c(O)cc1O
5. C=C[C@@H](C1=CC(=O)C(OC)=C(OC)C1=O)c1ccccc1

Output:
1. 1.02
2. 1.03
3. 0.986
4. 1.04
5. 0.903

Task: Look at this molecule and give its reported cell viability. "COc1ccc(C(C)=O)c(OC)c1"
Output: 0.971

====

Tested on: DLD1
Assay: cell viability (CellTiter-Glo) relative to plate median (fraction of plate median); higher = more viable cells
Settings: 5 µM; treatment time 24 h; reporter: 7TFP
MEASURE: cell viability

Some molecules with known cell viability results, for comparison:
MOLECULE	cell viability
COc1ccc(C(Cl)=C(c2ccc(OC)cc2)c2ccc(OC)cc2)cc1	1.01
Nc1c2c(nc3ccccc13)CCCC2	1.04
CCCCOc1cc(C(=O)NCCN(CC)CC)c2ccccc2n1	0.973

For each of the molecules below, state cell viability.
1. O=C1C=C2CC3(O)COc4cc(O)ccc4C3=C2C=C1O (configuration not stated)
2. O=C(O)c1cc(O)ccc1O
3. CCN(CC)C(=S)SSC(=S)N(CC)CC
4. COc1cc2nc(N3CCN(C(=O)C4CCCO4)CC3)nc(N)c2cc1OC (configuration not stated)

Output:
[1.02, 0.954, 0.764, 1.05]

For each of the molecules below, state cell viability.
1. CCN(CC)C(C)CN1c2ccccc2Sc2ccccc21 (configuration not stated)
2. C[C@H]1C[C@H]2[C@@H]3CCC4=CC(=O)C=C[C@]4(C)[C@@]3(F)[C@@H](O)C[C@]2(C)[C@@]1(O)C(=O)CO
3. OC(Cn1cncn1)(Cn1cncn1)c1ccc(F)cc1F
4. CC(=O)N[C@@H](Cc1c[nH]c2ccccc12)C(=O)O

Output:
[1.07, 0.973, 0.889, 0.953]

Task: Look at this molecule and give its reported cell viability. "CN1CC(=O)NC1=N"
Output: 1.02

====

System: DLD1
Assay: TCF/Wnt firefly luciferase reporter signal relative to plate median (fraction of plate median); higher = higher Wnt reporter signal
Conditions: 5 µM; treatment time 24 h; reporter: 7TFP
Would you mind labelling by TCF/Wnt firefly luciferase reporter signal? At or over 1 is rule met, under is rule not met.

Task: Hello, I need to know if "COc1cc(C)cc2ccc(-c3ccc4c(c3O)[C@@H](C)N[C@H](C)C4)c(O)c12" has measured TCF/Wnt firefly luciferase reporter signal not below 1. Thanks!
Output: rule met

====

System: SW480
Experiment: cell viability (CellTiter-Glo) relative to plate median (fraction of plate median); higher = more viable cells
Details: 10 µM; treatment time 24 h; reporter: 7TFP
Assignment: determine reported cell viability for the given compounds.

Some compounds with known cell viability results, for comparison:
COMPOUND	cell viability
COc1ccc(S(=O)(=O)N(C(C)=O)c2ccccc2/C=C/c2cc[n+]([O-])cc2)cc1	1.14
NC(=O)Nc1sc(-c2ccc(F)cc2)cc1C(N)=O	1.1
Cc1cc(Nc2cc(N3CCN(C)CC3)nc(Sc3ccc(NC(=O)C4CC4)cc3)n2)n[nH]1	1.16
CCC[C@H](NC(=O)/C(C#N)=C/c1cccc(Br)n1)c1ccccc1	0.826

For each of the compounds below, state cell viability.
1. C[C@H](NC(=O)/C(C#N)=C/c1cccc(Br)n1)c1ccccc1
2. O=c1cc(-c2cccc3c2Sc2ccccc2S3)oc(N2CCOCC2)c1

Output:
1. 0.899
2. 0.875

For each of the compounds below, state cell viability.
1. COc1cc2ncnc(Nc3ccc(F)c(Cl)c3)c2cc1OCCCN1CCOCC1
2. CO[C@@H](C(=O)N1Cc2[nH]nc(NC(=O)c3ccc(N4CCN(C)CC4)cc3)c2C1)c1ccccc1
3. Cc1cc(Nc2cc(N3CCN(C)CC3)nc(/C=C/c3ccccc3)n2)n[nH]1
4. COC(=O)Nc1ccc(-c2nc(N3CCOCC3)c3cnn(C4CCN(Cc5cccnc5)CC4)c3n2)cc1
5. NCC(=O)Nc1ccc(-n2nc(C(F)(F)F)cc2-c2ccc3c(ccc4ccccc43)c2)cc1
6. O=C1NCCc2[nH]c(-c3ccncc3)cc21
7. O=C1Nc2ccccc2/C1=C1/Nc2ccccc2C1=O
8. NC1(Cc2ccc(Cl)cc2)CCN(c2ncnc3[nH]ccc23)CC1

Output:
[0.917, 1.1, 0.908, 1.05, 0.678, 1.24, 0.862, 1.02]

For each of the compounds below, state cell viability.
1. Cc1ccc(NC(=O)c2cccc(N(C)C)c2)cc1NC(=O)c1ccc(O)cc1
2. Cc1ccc(C(=O)Nc2cccc(C(F)(F)F)c2)cc1Nc1nc(-c2cccnc2)nc2c1cnn2C
3. C#Cc1cccc(Nc2ncnc3cc(OCCOC)c(OCCO)cc23)c1
4. O=c1c(O)c(-c2ccc(O)c(O)c2)oc2cc(O)cc(O)c12 [Quercetin (Sophoretin)]

Output:
1. 0.907
2. 1.05
3. 0.961
4. 0.92
